- experimentSummary: PK of 20 kDa PEGylated relaxin polypeptides after a single subcutaneous injection in SD rats (Example 40)
- Type: in vivo, Sprague-Dawley (SD) rats
- runParameters: 0.5 mg/kg SC, SD rats
Non-standard residues stand in square brackets, D forms with d. No end group written: not given here. Phe(4-Ac) = CC(=O)c1ccc(C[C@H](N)C(=O)O)cc1
Quick rule for you: Vz at 0.5 L/kg or higher means rule met, lower means rule not met.

// known answers, use as guide
RLX-A-AR18-20KPEG-001: relaxin variant, B1 Ala, pAF at A chain position R18, 20K PEGylated (chain 1 QLYSALANKCCHVGCTKXSLARFC; chain 2 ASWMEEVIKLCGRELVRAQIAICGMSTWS; not fully specified; non-natural residues)    rule met
RLX-A-AV13-20KPEG-001: relaxin variant, B1 Ala, pAF substituted for valine 13 in the A chain, 20K PEG attached (chain 1 QLYSALANKCCHXGCTKRSLARFC; chain 2 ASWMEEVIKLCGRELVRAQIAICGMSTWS; not fully specified; non-natural residues)    rule not met
RLX-A-BW28-20KPEG-001: relaxin variant, B1 Ala, pAF at B chain position W28, 20K PEGylated (chain 1 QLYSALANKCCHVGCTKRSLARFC; chain 2 ASWMEEVIKLCGRELVRAQIAICGMST[Phe(4-Ac)](PEG 20 kDa)S; not fully specified (bridges); ends and bridges not checked)    rule not met
RLX-A-AA5-20KPEG-001: relaxin variant, B1 Ala, pAF at A chain position A5, 20K PEGylated (chain 1 QLYSXLANKCCHVGCTKRSLARFC; chain 2 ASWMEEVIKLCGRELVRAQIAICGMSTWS; not fully specified; non-natural residues)    rule met

Proceed to the following item.
Is reported Vz greater than or equal to 0.5 L/kg here: RLX-A-BV7-20KPEG-001: relaxin variant, B1 Ala, pAF at B chain position V7, 20K PEGylated (chain 1 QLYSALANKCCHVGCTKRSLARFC; chain 2 ASWMEE[Phe(4-Ac)](PEG 20 kDa)IKLCGRELVRAQIAICGMSTWS; not fully specified (bridges); ends and bridges not checked) rule met

---

- experimentSummary: PK of 20 kDa PEGylated relaxin polypeptides after a single subcutaneous injection in SD rats (Example 40)
- Type: in vivo, Sprague-Dawley (SD) rats
- runParameters: 20K PEG
Non-standard residues stand in square brackets, D forms with d. No end group written: not given here. Phe(4-Ac) = CC(=O)c1ccc(C[C@H](N)C(=O)O)cc1
I'd appreciate it if you could supply In vivo PK Term HL values for the items below.
Give bare numbers, in h.

Answered examples (3):
RLX-A-BW28-20KPEG-001: relaxin variant, B1 Ala, pAF at B chain position W28, 20K PEGylated (chain 1 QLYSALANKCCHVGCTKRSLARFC; chain 2 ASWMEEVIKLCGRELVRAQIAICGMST[Phe(4-Ac)](PEG 20 kDa)S; not fully specified (bridges); ends and bridges not checked)    13.9
RLX-A-BV7-20KPEG-001: relaxin variant, B1 Ala, pAF at B chain position V7, 20K PEGylated (chain 1 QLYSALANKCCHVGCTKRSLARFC; chain 2 ASWMEE[Phe(4-Ac)](PEG 20 kDa)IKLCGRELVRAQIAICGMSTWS; not fully specified (bridges); ends and bridges not checked)    13.1
RLX-A-AA5-20KPEG-001: relaxin variant, B1 Ala, pAF at A chain position A5, 20K PEGylated (chain 1 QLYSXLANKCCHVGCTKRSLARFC; chain 2 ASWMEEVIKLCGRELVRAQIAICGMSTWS; not fully specified; non-natural residues)    12.2

Shifting focus to the substance that follows.
// lookup In vivo PK Term HL for RLX-A-AR18-20KPEG-001: relaxin variant, B1 Ala, pAF at A chain position R18, 20K PEGylated (chain 1 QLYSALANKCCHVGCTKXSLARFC; chain 2 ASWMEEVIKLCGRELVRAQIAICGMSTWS; not fully specified; non-natural residues) 12.5

---

- experimentSummary: PK of 20 kDa PEGylated relaxin polypeptides after a single subcutaneous injection in SD rats (Example 40)
- Format: in vivo, Sprague-Dawley (SD) rats
- runParameters: 0.5 mg/kg SC, male SD rats, 80 hr
Non-standard residues stand in square brackets, D forms with d. No end group written: not given here. Phe(4-Ac) = CC(=O)c1ccc(C[C@H](N)C(=O)O)cc1
Answer each item with its documented Mean serum Conc..
Report the figure along with its unit, number first.

RLX-A-AA5-20KPEG-001: relaxin variant, B1 Ala, pAF at A chain position A5, 20K PEGylated (chain 1 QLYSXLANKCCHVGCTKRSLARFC; chain 2 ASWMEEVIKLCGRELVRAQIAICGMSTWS; not fully specified; non-natural residues)    22.1 ng/mL

Please supply Mean serum Conc. for each of the following items, keeping them in order.
1. RLX-A-BV7-20KPEG-001: relaxin variant, B1 Ala, pAF at B chain position V7, 20K PEGylated (chain 1 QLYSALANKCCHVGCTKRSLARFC; chain 2 ASWMEE[Phe(4-Ac)](PEG 20 kDa)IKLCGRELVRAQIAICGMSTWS; not fully specified (bridges); ends and bridges not checked)
2. RLX-A-AR18-20KPEG-001: relaxin variant, B1 Ala, pAF at A chain position R18, 20K PEGylated (chain 1 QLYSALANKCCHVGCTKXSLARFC; chain 2 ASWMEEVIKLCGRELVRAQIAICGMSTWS; not fully specified; non-natural residues)
3. RLX-A-BW28-20KPEG-001: relaxin variant, B1 Ala, pAF at B chain position W28, 20K PEGylated (chain 1 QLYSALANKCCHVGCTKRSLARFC; chain 2 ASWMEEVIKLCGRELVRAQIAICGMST[Phe(4-Ac)](PEG 20 kDa)S; not fully specified (bridges); ends and bridges not checked)
4. RLX-A-AV13-20KPEG-001: relaxin variant, B1 Ala, pAF substituted for valine 13 in the A chain, 20K PEG attached (chain 1 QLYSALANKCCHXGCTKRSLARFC; chain 2 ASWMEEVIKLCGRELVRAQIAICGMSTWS; not fully specified; non-natural residues)

22.6 ng/mL
14.9 ng/mL
37.1 ng/mL
58.7 ng/mL

---

- experimentSummary: PK of 20 kDa PEGylated relaxin polypeptides after a single subcutaneous injection in SD rats (Example 40)
- Type: in vivo, Sprague-Dawley (SD) rats
- runParameters: 0.5 mg/kg SC, SD rats
Non-standard residues stand in square brackets, D forms with d. No end group written: not given here. Phe(4-Ac) = CC(=O)c1ccc(C[C@H](N)C(=O)O)cc1
measuredProperty: AUCinf (ng·h/mL)
Answers are plain numbers, in ng·h/mL.

Parameter requested: AUCinf. Apply to each item below.
1. RLX-A-BW28-20KPEG-001: relaxin variant, B1 Ala, pAF at B chain position W28, 20K PEGylated (chain 1 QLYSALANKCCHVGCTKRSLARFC; chain 2 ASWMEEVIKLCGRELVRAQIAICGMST[Phe(4-Ac)](PEG 20 kDa)S; not fully specified (bridges); ends and bridges not checked)
2. RLX-A-AR18-20KPEG-001: relaxin variant, B1 Ala, pAF at A chain position R18, 20K PEGylated (chain 1 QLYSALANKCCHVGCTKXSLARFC; chain 2 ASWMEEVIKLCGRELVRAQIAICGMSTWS; not fully specified; non-natural residues)

22191.2
12985.5

---

- experimentSummary: PK of 20 kDa PEGylated relaxin polypeptides after a single subcutaneous injection in SD rats (Example 40)
- Format: in vivo, Sprague-Dawley (SD) rats
- runParameters: 0.5 mg/kg SC, male SD rats, 73 hr
Non-standard residues stand in square brackets, D forms with d. No end group written: not given here. Phe(4-Ac) = CC(=O)c1ccc(C[C@H](N)C(=O)O)cc1
Kindly supply the reported Mean serum Conc. values for the records listed here.
Answers are plain numbers, in µg/mL.

RLX-A-BW28-20KPEG-001: relaxin variant, B1 Ala, pAF at B chain position W28, 20K PEGylated (chain 1 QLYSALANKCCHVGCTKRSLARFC; chain 2 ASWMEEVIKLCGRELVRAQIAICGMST[Phe(4-Ac)](PEG 20 kDa)S; not fully specified (bridges); ends and bridges not checked)    0.0488

Next substance, Mean serum Conc. to be filled in.
Would you mind telling me what Mean serum Conc. value was observed for RLX-A-BV7-20KPEG-001: relaxin variant, B1 Ala, pAF at B chain position V7, 20K PEGylated (chain 1 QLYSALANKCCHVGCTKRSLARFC; chain 2 ASWMEE[Phe(4-Ac)](PEG 20 kDa)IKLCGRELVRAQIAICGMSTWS; not fully specified (bridges); ends and bridges not checked) ? 0.026

---

Please provide measured Mean serum Conc. for the entries that follow.
- experimentSummary: PK of 20 kDa PEGylated relaxin polypeptides after a single subcutaneous injection in SD rats (Example 40)
- Type: in vivo, Sprague-Dawley (SD) rats
- runParameters: 0.5 mg/kg SC, male SD rats, 25 hr
Non-standard residues stand in square brackets, D forms with d. No end group written: not given here. Phe(4-Ac) = CC(=O)c1ccc(C[C@H](N)C(=O)O)cc1
Give bare numbers, in ng/mL.

RLX-A-BV7-20KPEG-001: relaxin variant, B1 Ala, pAF at B chain position V7, 20K PEGylated (chain 1 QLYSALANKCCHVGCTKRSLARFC; chain 2 ASWMEE[Phe(4-Ac)](PEG 20 kDa)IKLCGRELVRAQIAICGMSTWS; not fully specified (bridges); ends and bridges not checked)    518.5

Here's the next entry for you.
Using the record for RLX-A-AR18-20KPEG-001: relaxin variant, B1 Ala, pAF at A chain position R18, 20K PEGylated (chain 1 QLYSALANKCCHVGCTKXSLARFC; chain 2 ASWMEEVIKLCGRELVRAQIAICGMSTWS; not fully specified; non-natural residues) , report its Mean serum Conc.. 398.6
